Just for reference, patent US7964531B2 is where these values come from.

Test system: Scirpus joncoides
test_protocol: Test Example 1: herbicidal effects, paddy-field pot test
Assay type: in vivo
recorded_conditions: chemical dosage 25 g/a; wettable powder applied 3 days after transplanting; judged after 25 days
# Herbicidal effects Scirpus joncoides per entry
endpoint_label: Herbicidal effects Scirpus joncoides

CC(C)c1cccc(Cl)c1Oc1nnc(Cl)cc1O [Example 18] ... 4 (Growth inhibition rate; 71 to 90%)
CCCc1ccccc1Oc1nnc(Cl)cc1O [Example 56] ... 3 (Growth inhibition rate; 51 to 70%)
CC(C)c1ccccc1Oc1nnc(Cl)cc1O [Example 57] ... 4 (Growth inhibition rate; 71 to 90%)
Cc1cc(C)cc(Oc2nnc(Cl)cc2O)c1 [Example 281] ... 3 (Growth inhibition rate; 51 to 70%)
CC(C)c1cccc(C(C)C)c1Oc1nnc(Cl)cc1O [Example 271] ... 4 (Growth inhibition rate; 71 to 90%)
Cc1ccc(C)c(Oc2nnc(Cl)cc2O)c1 [Example 205] ... 5 (Growth inhibition rate; 91 to 100%)
Cc1ccc(Cl)c(Oc2nnc(Cl)cc2O)c1 [Example 203] ... 5 (Growth inhibition rate; 91 to 100%)
CSc1c(C)cc(C)cc1Oc1nnc(Cl)cc1O [Example 289] ... 5 (Growth inhibition rate; 91 to 100%)
Oc1cc(Cl)nnc1Oc1ccccc1Cl [Example 50] ... 4 (Growth inhibition rate; 71 to 90%)
CCc1cccc(Cl)c1Oc1nnc(Cl)cc1O [Example 243] ... 4 (Growth inhibition rate; 71 to 90%)
Cc1ccc(C(C)C)c(Oc2nnc(Cl)cc2O)c1 [Example 212] ... 5 (Growth inhibition rate; 91 to 100%)
Cc1cccc(C(C)(C)C)c1Oc1nnc(Cl)cc1O [Example 22] ... 4 (Growth inhibition rate; 71 to 90%)

###

# melting point per entry
endpoint_label: melting point

COC1(c2ccccc2Oc2nnc(Cl)cc2O)CC1 ... 157 to 165 °C
CC(=O)c1cc(O)c(Oc2ccccc2C)nn1 ... 182 to 185 °C
COc1cccc(Oc2nnc(Cl)cc2O)c1C1CC1 ... 184 to 185 °C
COc1cccc(Oc2nnc(Cl)cc2O)c1C ... 224 to 237 °C
Cc1ccccc1Oc1nnc(Cl)cc1OS(=O)(=O)c1ccccc1 ... 91.5 to 92 °C
CC(C)c1cccc(Br)c1Oc1nnc(Cl)cc1O ... 232 to 253 °C (dec.)
Oc1cc(Cl)nnc1Oc1cccc2ccccc12 ... 243 to 245 °C
CC1(C)CC1c1ccccc1Oc1nnc(Cl)cc1O (stereo not drawn) ... 187 to 188 °C
Cc1c([N+](=O)[O-])ccc(C2CC2)c1Oc1nnc(Cl)cc1O ... 140 to 143 °C

###

# Herbicidal effects Scirpus joncoides per entry
System: Scirpus joncoides
test_protocol: Test Example 1: herbicidal effects, paddy-field pot test
Type: in vivo
recorded_conditions: chemical dosage 10 g/a; wettable powder applied 3 days after transplanting; judged after 25 days
Experimental: A paddy soil was filled in 1/10,000 are pot, and seeds of barnyardgrass (Echinochloa oryzicola Vasing.), Scirpus joncoides and annual broad-leaved weeds (Lindernia spp., Rotala indica) which are awaken from dormancy were mixed at the surface layer of 1 cm. Also, tuber of Cyperus serotinus which is germinated was planted, and further seedlings of paddy-field rice at 2.2-leaf stage were transplanted, and they were grown under the flooded condition in a greenhouse. […]
endpoint_label: Herbicidal effects Scirpus joncoides

Cc1ccc(Br)c(Oc2nnc(Cl)cc2O)c1C ... 5 (Growth inhibition rate; 91 to 100%)
Oc1cc(Cl)nnc1Oc1c(C2CC2)cccc1C1CC1 ... 5 (Growth inhibition rate; 91 to 100%)
Oc1cc(Cl)nnc1Oc1cccc2c1OCC2 ... 5 (Growth inhibition rate; 91 to 100%)
Cc1ccc(C)c(Oc2nnc(Cl)cc2O)c1Br ... 4 (Growth inhibition rate; 71 to 90%)
CC1CCc2cccc(Oc3nnc(Cl)cc3O)c21 (stereo not shown) ... 5 (Growth inhibition rate; 91 to 100%)
O=[N+]([O-])c1ccc(S(=O)(=O)Oc2cc(Cl)nnc2Oc2ccccc2C2CC2)cc1 ... 4 (Growth inhibition rate; 71 to 90%)
Cc1ccccc1Oc1nnc(Cl)cc1OS(C)(=O)=O ... 3 (Growth inhibition rate; 51 to 70%)
Oc1cc(Cl)nnc1Oc1cc(Cl)ccc1C1CC1 ... 5 (Growth inhibition rate; 91 to 100%)
CCOc1ccccc1Oc1nnc(Cl)cc1O ... 4 (Growth inhibition rate; 71 to 90%)
Oc1cc(Cl)nnc1Oc1c(F)cccc1C1CC1 ... 5 (Growth inhibition rate; 91 to 100%)
Oc1cc(Cl)nnc1Oc1cccc2c1CCO2 ... 3 (Growth inhibition rate; 51 to 70%)
CC(C)Oc1ccccc1Oc1nnc(Cl)cc1O ... 3 (Growth inhibition rate; 51 to 70%)
CCc1ccc(C2CC2)c(Oc2nnc(Cl)cc2O)c1 ... 5 (Growth inhibition rate; 91 to 100%)
Cc1cccc(Br)c1Oc1nnc(Cl)cc1O ... 5 (Growth inhibition rate; 91 to 100%)
Oc1cc(Cl)nnc1Oc1c(Cl)cccc1C1CC1 ... 5 (Growth inhibition rate; 91 to 100%)
Cc1ccc2c(c1Oc1nnc(Cl)cc1O)CCC2 ... 5 (Growth inhibition rate; 91 to 100%)
Oc1cc(Cl)nnc1Oc1c(Br)cccc1C1CC1 ... 5 (Growth inhibition rate; 91 to 100%)
Oc1cc(Cl)nnc1Oc1c(C2CC2)ccc2c1CCC2 ... 5 (Growth inhibition rate; 91 to 100%)
CCCS(=O)(=O)Oc1cc(Cl)nnc1Oc1ccccc1C1CC1 ... 5 (Growth inhibition rate; 91 to 100%)
COc1cccc(C2CC2)c1Oc1nnc(Cl)cc1O ... 3 (Growth inhibition rate; 51 to 70%)
CC(=O)Oc1cc(Cl)nnc1Oc1ccccc1C1CC1 ... 5 (Growth inhibition rate; 91 to 100%)
CC(C)c1cccc(F)c1Oc1nnc(Cl)cc1O ... 5 (Growth inhibition rate; 91 to 100%)
Cc1cccc(C)c1Oc1nnc(Cl)cc1O ... 5 (Growth inhibition rate; 91 to 100%)
Oc1cc(Cl)nnc1Oc1ccccc1C1CCC1 ... 3 (Growth inhibition rate; 51 to 70%)
CCCS(=O)(=O)Oc1cc(Cl)nnc1Oc1cccc2c1CCC2 ... 5 (Growth inhibition rate; 91 to 100%)
Cc1ccc(C2CC2)c(Oc2nnc(Cl)cc2O)c1C ... 5 (Growth inhibition rate; 91 to 100%)
Cc1cc(C)c(Oc2nnc(Cl)cc2O)c(C2CC2)c1 ... 5 (Growth inhibition rate; 91 to 100%)
Oc1cc(Cl)nnc1Oc1c(Br)ccc2ccoc12 ... 5 (Growth inhibition rate; 91 to 100%)
Cc1cc(C)c(C2CC2)c(Oc2nnc(Cl)cc2O)c1 ... 5 (Growth inhibition rate; 91 to 100%)
Oc1cc(Cl)nnc1Oc1cc(F)ccc1C1CC1 ... 5 (Growth inhibition rate; 91 to 100%)
Oc1cc(Cl)nnc1Oc1c(Cl)cccc1I ... 3 (Growth inhibition rate; 51 to 70%)
Oc1cc(Cl)nnc1Oc1cccc2c1CCC2 ... 5 (Growth inhibition rate; 91 to 100%)
CCOC(=O)Oc1cc(Cl)nnc1Oc1ccccc1C1CC1 ... 5 (Growth inhibition rate; 91 to 100%)
Cc1cc(C)c(Br)c(Oc2nnc(Cl)cc2O)c1C ... 5 (Growth inhibition rate; 91 to 100%)
Oc1cc(Cl)nnc1Oc1ccccc1OC(F)(F)F ... 3 (Growth inhibition rate; 51 to 70%)
Oc1cc(Cl)nnc1Oc1cccc2ccoc12 ... 5 (Growth inhibition rate; 91 to 100%)
CS(=O)(=O)Oc1cc(Cl)nnc1Oc1ccccc1C1CC1 ... 5 (Growth inhibition rate; 91 to 100%)
Cc1cccc(C(C)C)c1Oc1nnc(Cl)cc1O ... 4 (Growth inhibition rate; 71 to 90%)
O=S(=O)(Oc1cc(Cl)nnc1Oc1ccccc1C1CC1)c1ccccc1 ... 4 (Growth inhibition rate; 71 to 90%)
COc1ccc(C)cc1Oc1nnc(Cl)cc1O ... 5 (Growth inhibition rate; 91 to 100%)
Oc1cc(Cl)nnc1Oc1c(C2CC2)ccc2ccoc12 ... 4 (Growth inhibition rate; 71 to 90%)
COc1cccc(C)c1Oc1nnc(Cl)cc1O ... 4 (Growth inhibition rate; 71 to 90%)
Cc1cccc(Oc2nnc(Cl)cc2O)c1C1CC1 ... 5 (Growth inhibition rate; 91 to 100%)

###

# melting point per entry
endpoint_label: melting point

N#Cc1ccc(C2CC2)c(Oc2nnc(Cl)cc2O)c1 ... 211 to 212 °C
Oc1cc(Cl)nnc1Oc1c(Br)cccc1Br ... 274 to 278 °C
CC1CCc2c(Oc3nnc(Cl)cc3O)cccc21 (stereo not drawn) ... 228 to 230 °C
CC#Cc1ccccc1Oc1nnc(Cl)cc1O ... 182 to 184 °C
Cc1cccc(C2CC2)c1Oc1nnc(Cl)cc1OC(=O)N(CCC#N)CCC#N ... 159 to 161 °C
CCOC1CC1c1ccccc1Oc1nnc(Cl)cc1O (stereo not drawn) ... 145 to 152 °C
CC(C)(C)c1ccc(C(C)(C)C)c(Oc2nnc(Cl)cc2O)c1 ... 249 to 258 °C
Cc1ccc(S(=O)(=O)Oc2cc(Cl)nnc2Oc2ccccc2C(C)(C)C)cc1 ... 98 to 99 °C
COc1cccc(Oc2nnc(Cl)cc2O)c1OC ... 199 to 201 °C
CC(C)c1cc(Oc2nnc(Cl)cc2O)cc(C(C)C)c1 [Compound No. 1007] ... 249 to 253 °C
Cc1cc(C)cc(Oc2nnc(Cl)cc2O)c1 ... 178 to 182 °C
Oc1cc(Cl)nnc1Oc1c(F)cccc1C1CC1 ... 200 to 203 °C
Oc1cc(Cl)nnc1Oc1cccc(OCc2ccccc2)c1 ... 184 to 185 °C
Cc1ccccc1Oc1nnc(Cl)cc1OC(=O)N1CCCC1 ... 126 to 127 °C
Cc1cccc(C2CC2)c1Oc1nnc(Cl)cc1OC(=O)N(C)C(C)(C)C ... 113 to 115 °C
Oc1cc(Cl)nnc1Oc1ccccc1C1CCCCC1 ... 158 to 159 °C
Cc1cccc(C2CC2)c1Oc1nnc(Cl)cc1OC(=O)c1cc(Cl)cc(Cl)c1 ... 168 to 174 °C
O=Cc1cccc(Oc2nnc(Cl)cc2O)c1 ... 188 to 192 °C
Oc1cc(Cl)nnc1Oc1c(Cl)cccc1Br ... 266 to 274 °C
Cc1ccc(C(C)C)c(Oc2nnc(Cl)cc2OC(=O)c2ccccc2C)c1 ... 95 to 97 °C
CC=Cc1ccc(F)cc1Oc1nnc(Cl)cc1O ... 210 to 217 °C
Cc1ccc2occc2c1Oc1nnc(Cl)cc1O ... 222 to 225 °C
CCc1cccc(Br)c1Oc1nnc(Cl)cc1O ... 215 to 217 °C
CCc1ccccc1Oc1nnc(Cl)cc1O ... 217 to 218 °C
Cc1cccc(C2CC2)c1Oc1nnc(Cl)cc1OC(=O)c1ccc(C(C)(C)C)cc1 ... 139 to 142 °C
CC=Cc1ccc(Cl)cc1Oc1nnc(Cl)cc1O ... 221 to 224 °C
Cc1cc(C)c(C2CC2)c(Oc2nnc(Cl)cc2O)c1 ... 200 to 203 °C
Oc1cc(Cl)nnc1Oc1cccc2occc12 ... 220 to 225 °C
COc1cccc(Oc2nnc(Cl)cc2OS(=O)(=O)c2ccc(C)cc2)c1 ... 89 to 90 °C
CC(C)(C)c1cccc(Oc2nnc(Cl)cc2O)c1 ... 203 to 207 °C
CC(=O)c1cccc(Oc2nnc(Cl)cc2O)c1 ... 195 to 198 °C
Cc1ccc(S(=O)(=O)Oc2cc(Cl)nnc2Oc2ccccc2C2CCCCC2)cc1 ... 120 to 121 °C
Cc1ccc(C(=O)Oc2cc(Cl)nnc2Oc2c(C)cccc2C2CC2)cc1 ... 77.5 to 78 °C
O=C(Oc1cc(Cl)nnc1Oc1ccccc1C1CC1)C1CC1 ... 122 to 125 °C
Oc1ccccc1Oc1nnc(Cl)cc1O ... 216 to 219 °C
CN(C)C(=O)Oc1cc(Cl)nnc1Oc1ccccc1C1CC1 ... 137 to 138 °C
Cc1cc(C)c(Br)c(Oc2nnc(Cl)cc2O)c1C ... 280 to 290 °C
Cc1ccccc1Oc1nnc(-c2cccs2)cc1O ... 86 to 87 °C
Cc1ccc(C(C)C)cc1Oc1nnc(Cl)cc1O ... 168 to 169 °C
